- METHOD: yeast display, Sf9 membrane polyspecificity reagent, FACS + sequencing; frameworks hold sequencing errors
QUANTITY_NAME: polyreactivity (PSR sort gate)

SEQUENCE_CHAIN | QUANTITY_NAME | RESULT
QVQLVESGGGLVQAGGSLRLSCAASGRIFGRYAMGWYRQAPGNERELVAAISSTGGRTYYADSVKGRFTISRDNAKNTVYLQMTSLKPEDTAVYYCAATYVHYPSMGYDYWGQGTQVTVSS | polyreactivity (PSR sort gate) | high polyreactivity
QVQLVESGGGLVQAGGSLRLSCAASGSTFRVYAMGWYRQATGKERELVAAIRWRGVTTYADSVKGRFTISRDNAKNTVYLQMNSLKPEDTAVYYCARDVNYPGSEGDYWGQGTQVTVSS | polyreactivity (PSR sort gate) | low polyreactivity
QVQLVESGGGLVQAGGSLRLSCAASGSIFYIYAMGWYRQAPGKERELVAAISWRTSSTYYADSVKGRFTISRDNAKNTVYLQMNSLKPEDTAVYYCAAETWLGSWRQVGMDYWGQGTQVTVSS | polyreactivity (PSR sort gate) | high polyreactivity
QVQLVESGGGLVQAGCSLRLSCAASGFTFQVYTMGSYRPAPGKERELVARISRRGGSTYYADSVKGRFTISRDNAKNTVYLQMNSLKPEDTAVYYCAADWYASSYRTYTFDYWGQGTQVTVSS | polyreactivity (PSR sort gate) | high polyreactivity
QDQLVESGGGLVQAGGSLRLSCAATGSTFPSNAMGWYRQAPGKEREFVATIRFSGGSTYYADSVKGRFTISRVNAKNTVDLQMNSLKPEDTAVYYCAARFYSSAYWYDYWGQGTQVTVSS | polyreactivity (PSR sort gate) | high polyreactivity
QFQLVESGGGLVQAGGSLRLSCAASGFIFRYNAMGWYRQAPGKERELVAAIDSGGSTYYADSVKGRFTISRDNAKNTVDLQMNSLKPEDTAVYYCYAVHEASYSGVDYWGQGTQVTVSS | polyreactivity (PSR sort gate) | low polyreactivity
QVQLVESAGGLVQAGGSLRLSCAASGLTQASYAMGWYRQAPGKERELVAAISRRSGRTYYADSVKGRFTISRDNAKNTVYLQMNSLKPVDTAVYYCNRGYTAQVYTEFDYWGQGTQVTVSS | polyreactivity (PSR sort gate) | low polyreactivity
QVQLVESGGGLVQAGGSLRLSCAASGSTFTYYTMGWSRQAPGKERELVAASSRTTGSTYYADSVKGRFTISRDNAKNTVYLQMNSLIPEDTAVYYCAAQSYKILLYFIGTAGDGYWGQGTQVTVSS | polyreactivity (PSR sort gate) | low polyreactivity
QVQLVESGGGIVQAGGSLRLSCAASGRTFAVYAMGWYRQAPGKERELVAAINSSGRTDYADSVKGRFTISRDNAKNTVYLQMNSLKPEDTAVYYCNADFYFRRYRYRYNYWGQGTQVTVSS | polyreactivity (PSR sort gate) | high polyreactivity
QVQLVESGGGLVQAGGSLRLSCAASGSTFVVYAMGWYRQAPGKERELVAAITTSDDSTYYADSVKGRFTISRDNAKNTVYLQMNSLKPEDTAVYYCAATLRWQDGYWGQGTQVTVSS | polyreactivity (PSR sort gate) | low polyreactivity
QVQLVESGGGLVHAGGSLRLSCAASARIFIAYMAWYRQAPGKERELVAAIDSGASTYYADSVKGRFTISRDNANNTVYLQMNSLKPEDTAVYYCAADVVYDYGGMDYWGQGTQVTVSS | polyreactivity (PSR sort gate) | low polyreactivity

* * *

- METHOD: yeast display, Sf9 membrane polyspecificity reagent, FACS + sequencing; frameworks hold sequencing errors

SEQUENCE_CHAIN | polyreactivity (PSR sort gate)
QVQLVESGGGLVQAGGSLRLSCAASGRIFGVYAMGRYRQAPGKERELVAGINGGDSTYYADSVKGRFTISRDNAKNTVYLQMNSLKAEDTAVYYCAAEADESGSNYDYWGQGTQVTVSS | low polyreactivity
QVQLVESGGGLVQAGGSLRLSCAASGLTFYKNVMGWYRQAPGKERELVAAISSSGGSTYYADSVKGRFTISRDNAKNTVYLQMNSLKPDDTAVYYGAADDPLYTPYEFDYWGQGTQVTVSS | low polyreactivity

* * *

- METHOD: yeast display, Sf9 membrane polyspecificity reagent, FACS + sequencing; frameworks hold sequencing errors
QUANTITY_NAME: polyreactivity (PSR sort gate)

SEQUENCE_CHAIN | QUANTITY_NAME | RESULT
QVQLVESGGGLVQAGGSLRLSCAASGRIFDLYAMGWYRQAPGKERELVATISGSGGSTYYADSVKGRFTISRDNAKNTVYLQMNSLKPEDTAVFYCAAVSVSSWYDYWGLGTQVTVSS | polyreactivity (PSR sort gate) | low polyreactivity
QVQLVESGGGLVQAGGSLRLSGAASGRTLVPYAMGWYRQAPGKERELVAAISSGGSTNYADSVKGRFRISRDNAKNTVYLQMNSLKPEDTAVYYCAYCGQGTQVTVSS | polyreactivity (PSR sort gate) | low polyreactivity
QVQLVESGGGLVQAGGSLRLSCAASGRIFKDYAMGWYRQAPGKEREFVARISSRGGRTYYADSVKGRFTISRDNAKNTVYLQMNSLKPEDTAVYYCAVTTSPYRPTKFDYWGQGTQVTVSS | polyreactivity (PSR sort gate) | high polyreactivity
QVQLGESGGGLVQAGGILRLSCAASGRIFPQYAMGWYRQAPGKERELVAGITSVGSTYYADSVKGRFTISRDNAKNTVYLQMNSLKPEDTAVYFCAAVPSRYVRANRRTYRYYYWGKGTQVTVSS | polyreactivity (PSR sort gate) | high polyreactivity
QVQLVESGGGLVQAGGSLRLSCAASGINFDDNAMGWYRQAPGKERELVATISDGGRTYYADSVKGRFTISRDNAKNTVYLQMNSQKPEDTAVYYCADRLWWPYSPAWAKMDYGGQGTQVTVSS | polyreactivity (PSR sort gate) | low polyreactivity
QVQLVESGGGLVQAGGSLRLSCAASGSTFGYNAMGWYRQAAGKERELVAGISSGGSTNYADSVKGRFTISRDNAKNTVYLQMNSLKPEDTAVYYCAAYKYDHRVDTGYDYWGQGTQVTVSS | polyreactivity (PSR sort gate) | low polyreactivity
QVQRVESGGGLVQAGGRLRLICAAAGYTFDYYAMGWYRQAPGKERELVAAISRSGTRTYYADSVKGRFTISRDNAKNTVYLQMYSLKPEVNAVYYLKKAYYLYAGDYWGQGTQVTVSS | polyreactivity (PSR sort gate) | high polyreactivity
QVQLVESGRGLVQAGGILRLFCAASGSTFVSYAIAWYRQAPGKERELVAAISRSGGSTYYADSVKGRFTISRDNAKNTVYLQMNSLKTEDTAVYYCAAVRYWSDYDYWGQGTKVTVSS | polyreactivity (PSR sort gate) | high polyreactivity
QVQLVESGGGLVQAGGSLRLICAASGSTFGPNGMGWYRQAPGKERELVARIDRIGGGTYYADSVKGRFTISRDNAKNTVYLQMNSLKPEDTAVYYCAADGPSPFIQGYAKGDYWGQGTQVTVSS | polyreactivity (PSR sort gate) | low polyreactivity
QVQLVESGGGLVLAGGTLRISCAASGSIFYRNTMGWYRLAPVKERELVAAITRGGGRTYYADSVKARFTISRDTAKNTVFLQMNSLKPEDSAVYYCAVQAFSHTSSRMDYWGQGSQVTVSS | polyreactivity (PSR sort gate) | high polyreactivity
QVQLVESGGGLVQAGGSLRLSCAASGSIFLVYSMGWYRQAPGKERELVAAISRSGRTYADSVKGRFTISRDNAKNTVYLQMNSLKPEDTAVYYCNKLAVRPGYGSTYDYWGQGTQVTVSS | polyreactivity (PSR sort gate) | high polyreactivity
QVQLVESGGGLVQAGGSLRLSCAASGLTFLWYAMGWYRQAPGKERELVAAITSGGRTKYADSVKGRFTISRDNAKNTVYLQMNSLKPEDTAVYYCAKRGGGTTYSRKHDYWGQGTQVTVSS | polyreactivity (PSR sort gate) | high polyreactivity
QVQLVESGGGLVQAGGSLRLSCAASGLIFYFYAMGWYRQAPGKERELVAAISSRGGRTYYADSVKGRFTISRDNAKNTVYLQMNSLKPEDTAVYYCNVDQLLRRTSAQGDYWGQGTQVTVSS | polyreactivity (PSR sort gate) | high polyreactivity
QVQLVESGGGLVQAGGSLRLSCAASGFTFGSYAMGWYRQAPGKEREFVAAISLGGARTYYADSVKGRFTISRDNAKNTVYLQMNSLKPEYTAVYDCAATVRGVGYRYYYWGQGTQVTVSS | polyreactivity (PSR sort gate) | high polyreactivity
QVQLVESVGGLVQAGGSLRLSCASSGFTFRFYVMGWSRQAPGKERELVAAITASGGTTYYADSVKGRFTISRDNAKNTVYLQMNSLKPEDTAVYYCNARYYYLYGYDYWGQGTQVTVSS | polyreactivity (PSR sort gate) | high polyreactivity
QVQLEESGRGLVQAGGSLRISCAASGRIFWGYAMGWYRQAPRKERELVARITSGGDTYYADSVKGRFTISRDNAKNTVYLQMNSLKPEDTAVYYCAAELRPGYRSSYGLIYDYWGQGTQVTVSS | polyreactivity (PSR sort gate) | low polyreactivity
QDQLVESGGCLVQAGGSLRLSCAASGSIFTDNVMGWYRQATGKERELVAAITSTGGNTYYADSVKGRFTISRDNAKNTVYLQMNSLKREDTAVYYCNKDVARYPYGKFDYWGQGTQVTVSS | polyreactivity (PSR sort gate) | low polyreactivity
QVQLVESGGGLVQAGGILRLSCAASGFTFVGNAMGWYRKAAGKERELVATITSGGNTKYADSVKGRFTISRDNAKNTVYLQMNSLTPEDTAVYYCAAAKYNYRRFKYWGQGTQVTVSS | polyreactivity (PSR sort gate) | low polyreactivity
QVQLVESGGGLVQAGGSIRLSCAASGSIYPFYSMGWYRQATGKEMELVAAISDSGGDTYYADSVKGRFTISRDNAKNTVYLQMNSLKPEDTAVYYCAADWFYNSFNYWGQGTQVTVSS | polyreactivity (PSR sort gate) | low polyreactivity
QVQLVESGGGLVQAGGSLRLSCAASGRIFVNYAMGWYRQAPGKERELVAVISRSGGGTNYADSVKGRFTISRDNAKNTVYLQMNSLKPEDTAVYYCNRVYALTYYAKYGYDYWGQGTQVTVSS | polyreactivity (PSR sort gate) | high polyreactivity
QVQLVESGGGLVQAGGSLRLSCAASGIIFDYNAMGWYRQAPGKERELVAAITSTDNTNYADSVKGRFTISRDNAKNTVYLQMNSLKPEDTAVYYCNTDYWLSVVYAMDYWGQGTQVTVSS | polyreactivity (PSR sort gate) | low polyreactivity
